# EXPERIMENTAL SYSTEM: TIM-3 (antigen; species and construct not stated for the assay) (UniProt Q8TDQ0 22-202, limits assumed)
# TEST DETAILS: SPR (Biacore), run of May 30, 2014
pKd: −log10 of the molar value.
# reported pKd; entries follow

>  <BINDER>
ABTIM3-hum09 (antibody, human IgG4 S228P, kappa, V domains shown, Humanized) VH: QVQLVQSGAEVKKPGSSVKVSCKASGYTFTSYNMHWVRQAPGQGLEWMGDIYPGNGDTSYNQKFKGRVTITADKSTSTVYMELSSLRSEDTAVYYCARVGGAFPMDYWGQGTTVTVSS VL: EIVLTQSPATLSLSPGERATLSCRASESVEYYGTSLMQWYQQKPGQAPRLLIYAASNVESGIPARFSGSGSGTDFTLTISSLEPEDIAVYFCQQSRKDPSTFGGGTKVEIKR

>  <pKd>
9.79

$$$$
>  <BINDER>
ABTIM3-hum06 (antibody, human IgG4 S228P, kappa, V domains shown, Humanized) VH: QVQLVQSGAEVKKPGASVKVSCKASGYTFTSYNMHWIRQAPGQGLEWIGDIYPGQGDTSYNQKFKGRATLTADKSTSTVYMELSSLRSEDTAVYYCARVGGAFPMDYWGQGTLVTVSS VL: DIVLTQSPDSLAVSLGERATINCRASESVEYYGTSLMQWYQQKPGQPPKLLIYAASNVESGVPDRFSGSGSGTDFTLTISSLQAEDVAVYFCQQSRKDPSTFGGGTKVEIKR

>  <pKd>
9.44

$$$$
>  <BINDER>
ABTIM3-hum04 (antibody, human IgG4 S228P, kappa, V domains shown, Humanized) VH: QVQLVQSGAEVKKPGASVKVSCKASGYTFTSYNMHWIRQAPGQGLEWIGDIYPGNGDTSYNQKFKGRATLTADKSTSTVYMELSSLRSEDTAVYYCARVGGAFPMDYWGQGTLVTVSS VL: DIVLTQSPDSLAVSLGERATINCRASESVEYYGTSLMQWYQQKPGQPPKLLIYAASNVESGVPDRFSGSGSGTDFTLTISSLQAEDVAVYFCQQSRKDPSTFGGGTKVEIKR

>  <pKd>
9.76

$$$$
>  <BINDER>
ABTIM3-hum07 (antibody, human IgG4 S228P, kappa, V domains shown, Humanized) VH: QVQLVQSGAEVKKPGASVKVSCKASGYTFTSYNMHWIRQAPGQGLEWIGDIYPGNGDTSYNQKFKGRATLTADKSTSTVYMELSSLRSEDTAVYYCARVGGAFPMDYWGQGTLVTVSS VL: DIVLTQSPDSLAVSLGERATINCRASESVEYYGTSLMQWYQQKPGQPPKLLIYAASNVESGVPDRFSGSGSGTDFTLTISSLQAEDVAVYYCQQSRKDPSTFGGGTKVEIKR

>  <pKd>
9.71

$$$$
>  <BINDER>
ABTIM3-hum05 (antibody, human IgG4 S228P, kappa, V domains shown, Humanized) VH: QVQLVQSGAEVKKPGASVKVSCKASGYTFTSYNMHWIRQAPGQGLEWIGDIYPGSGDTSYNQKFKGRATLTADKSTSTVYMELSSLRSEDTAVYYCARVGGAFPMDYWGQGTLVTVSS VL: DIVLTQSPDSLAVSLGERATINCRASESVEYYGTSLMQWYQQKPGQPPKLLIYAASNVESGVPDRFSGSGSGTDFTLTISSLQAEDVAVYFCQQSRKDPSTFGGGTKVEIKR

>  <pKd>
9.48

$$$$

The measurements presented in this section are drawn from patent US20250213684A1.
